Assay: plasma pharmacokinetics, LC-MS/MS, noncompartmental analysis
Type: in vivo, human
Details: human, plasma, oral, 6 mg, phase Ib, schedule C 6.0/3.0 mg NUT carcinoma only, day 1 after loading dose; read-out: tmax median
Measured Endpoint: Tmax
# output: number + unit

# input compound: CNc1nc(-c2nc3ccc(N4CCN(C)CC4)cc3n2Cc2ccccc2)cn2c(C)nnc12 ; wanted: its Tmax
2 h

* * *

Test: plasma pharmacokinetics, LC-MS/MS, noncompartmental analysis
Type: in vivo, human
Conditions: human, plasma, oral, 2.5 mg, phase Ib, schedule B 2.5 mg including NUT carcinoma, day 14; read-out: AUC0–24,ss gMean (gCV, %)
Measured Endpoint: AUC(0-t) (µM·h)
Numbers only, in µM·h.

Find the recorded AUC(0-t) belonging to CNc1nc(-c2nc3ccc(N4CCN(C)CC4)cc3n2Cc2ccccc2)cn2c(C)nnc12 [BI 894999] and report it.
0.125

Source of measurements: paper PMC12005229
